The measurements presented in this section are drawn from the supplement of paper PMC10126150.

# Tested on: ATP;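 further: ATP exposure 15 min at 22 °C before imaging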
# assay details: switch fluorescence ratio, 500 uM ATP over buffer (Cy3 cluster intensity, sum of 5 cycles each) (fold (ratio)); higher = stronger signal-on switching upon ATP binding; sequences stand for … in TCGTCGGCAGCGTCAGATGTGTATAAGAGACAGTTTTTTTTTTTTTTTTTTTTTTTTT…TC
# condition set: aptamer strand: ATP DNA aptamer (quencher-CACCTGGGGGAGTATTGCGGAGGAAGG + anchor), 100 nM annealed; ATP concentration: 500 uM
Reported switch fluorescence ratio is given for each of the following sequences.
When you answer, write just the number.

Field: example entries. Status: answers known.
monomer sequence: CGTCTGGGGG
system: ATP;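 further: ATP exposure 15 min at 22 °C before imaging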
switch fluorescence ratio: 1.01

monomer sequence: TAATTGCGGG
system: ATP;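 further: ATP exposure 15 min at 22 °C before imaging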
switch fluorescence ratio: 0.955

monomer sequence: GCTTGGGGTC
system: ATP;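 further: ATP exposure 15 min at 22 °C before imaging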
switch fluorescence ratio: 0.953

monomer sequence: AATGGCGGTA
system: ATP;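 further: ATP exposure 15 min at 22 °C before imaging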
switch fluorescence ratio: 0.993

monomer sequence: TTCACCCGTC
system: ATP;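 further: ATP exposure 15 min at 22 °C before imaging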
switch fluorescence ratio: 0.971

monomer sequence: GTTTGTGCAT
system: ATP;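 further: ATP exposure 15 min at 22 °C before imaging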
switch fluorescence ratio: 1.02

monomer sequence: GTTTGCCTCC
system: ATP;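 further: ATP exposure 15 min at 22 °C before imaging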
switch fluorescence ratio: 1.03

monomer sequence: CTATGCGTTT
system: ATP;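 further: ATP exposure 15 min at 22 °C before imaging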
switch fluorescence ratio: 0.989

Prompt line: Find switch fluorescence ratio for ACGGCATTAA on ATP and write it down.
Response line: 1.17

Prompt line: Name the value of switch fluorescence ratio reported for ACGAAATAGT when tested on ATP.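 Further: ATP exposure 15 min at 22 °C before imaging.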
Response line: 1.18

Prompt line: Fill in switch fluorescence ratio for GGGACGATTG tested with ATP.
Response line: 0.985

Prompt line: Report switch fluorescence ratio under test system ATP for GCGTCAACTG .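 Further: ATP exposure 15 min at 22 °C before imaging.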
Response line: 1.04

Prompt line: Answer with switch fluorescence ratio of GTTGATAAGG measured for ATP.
Response line: 1.01

----------
Item-by-item account of switch fluorescence ratio
# Tested on: ATP;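 further: ATP exposure 15 min at 22 °C before imaging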
# assay details: switch fluorescence ratio, 500 uM ATP over buffer (Cy3 cluster intensity, sum of 5 cycles each) (fold (ratio)); higher = stronger signal-on switching upon ATP binding; sequences stand for … in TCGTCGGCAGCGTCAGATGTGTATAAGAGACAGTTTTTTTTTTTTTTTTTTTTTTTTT…TC
# condition set: aptamer strand: ATP DNA aptamer (quencher-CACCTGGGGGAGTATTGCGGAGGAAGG + anchor), 100 nM annealed; ATP concentration: 500 uM
Response field accepts a number only; no unit should be typed.

monomer sequence: GGGGCCATTT
endpoint label: switch fluorescence ratio
observed result: 0.99

Prompt line: Tell us which switch fluorescence ratio value is on record for GGGAAACTTG
Response line: 0.988

Prompt line: Given the sequence TTGTGGGGAA , write its reported switch fluorescence ratio.
Response line: 1.12

Prompt line: Give the value of switch fluorescence ratio reported for the following: AAGGAGAATA
Response line: 1.03

----------
# System: ATP;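 further: ATP exposure 15 min at 22 °C before imaging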
# assay details: switch fluorescence ratio, 500 uM ATP over buffer (Cy3 cluster intensity, sum of 5 cycles each) (fold (ratio)); higher = stronger signal-on switching upon ATP binding; sequences stand for … in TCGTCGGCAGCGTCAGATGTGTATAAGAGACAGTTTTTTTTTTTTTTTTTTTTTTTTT…TC
# condition set: aptamer strand: ATP DNA aptamer (quencher-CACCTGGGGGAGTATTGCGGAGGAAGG + anchor), 100 nM annealed; ATP concentration: 500 uM
Below, each of the sequences is paired with its reported switch fluorescence ratio value.
Answer using only a numeral; do not append any unit.

Reference set, count: 10
monomer sequence: CGTTTAATAA
switch fluorescence ratio: 1.01
--
monomer sequence: GAGGCATGGG
switch fluorescence ratio: 1.03
--
monomer sequence: GGGTGAAGTT
switch fluorescence ratio: 0.984
--
monomer sequence: TAGATTTTTA
switch fluorescence ratio: 0.987
--
monomer sequence: CCCACAGGAC
switch fluorescence ratio: 1.73
--
monomer sequence: TGCATGTTTG
switch fluorescence ratio: 0.975
--
monomer sequence: TTTGACGCGC
switch fluorescence ratio: 1.16
--
monomer sequence: AATTTGGTTA
switch fluorescence ratio: 0.995
--
monomer sequence: AAAGTCTTGT
switch fluorescence ratio: 1.01
--
monomer sequence: AAAAACTTGT
switch fluorescence ratio: 1.03

Prompt line: Answer with the recorded switch fluorescence ratio of CCAGATTACT only.
Response line: 1.01

Prompt line: Please list switch fluorescence ratio recorded for the sequence ATTAATTGTG
Response line: 1.01

Prompt line: Let me know recorded switch fluorescence ratio for CTGGGGTTTG , thanks.
Response line: 0.956
